# target of assay: Tyrosine-protein kinase JAK1 (Homo sapiens, UniProt P23458)
# Sequence (P23458 whole entry, the tested form may be a part): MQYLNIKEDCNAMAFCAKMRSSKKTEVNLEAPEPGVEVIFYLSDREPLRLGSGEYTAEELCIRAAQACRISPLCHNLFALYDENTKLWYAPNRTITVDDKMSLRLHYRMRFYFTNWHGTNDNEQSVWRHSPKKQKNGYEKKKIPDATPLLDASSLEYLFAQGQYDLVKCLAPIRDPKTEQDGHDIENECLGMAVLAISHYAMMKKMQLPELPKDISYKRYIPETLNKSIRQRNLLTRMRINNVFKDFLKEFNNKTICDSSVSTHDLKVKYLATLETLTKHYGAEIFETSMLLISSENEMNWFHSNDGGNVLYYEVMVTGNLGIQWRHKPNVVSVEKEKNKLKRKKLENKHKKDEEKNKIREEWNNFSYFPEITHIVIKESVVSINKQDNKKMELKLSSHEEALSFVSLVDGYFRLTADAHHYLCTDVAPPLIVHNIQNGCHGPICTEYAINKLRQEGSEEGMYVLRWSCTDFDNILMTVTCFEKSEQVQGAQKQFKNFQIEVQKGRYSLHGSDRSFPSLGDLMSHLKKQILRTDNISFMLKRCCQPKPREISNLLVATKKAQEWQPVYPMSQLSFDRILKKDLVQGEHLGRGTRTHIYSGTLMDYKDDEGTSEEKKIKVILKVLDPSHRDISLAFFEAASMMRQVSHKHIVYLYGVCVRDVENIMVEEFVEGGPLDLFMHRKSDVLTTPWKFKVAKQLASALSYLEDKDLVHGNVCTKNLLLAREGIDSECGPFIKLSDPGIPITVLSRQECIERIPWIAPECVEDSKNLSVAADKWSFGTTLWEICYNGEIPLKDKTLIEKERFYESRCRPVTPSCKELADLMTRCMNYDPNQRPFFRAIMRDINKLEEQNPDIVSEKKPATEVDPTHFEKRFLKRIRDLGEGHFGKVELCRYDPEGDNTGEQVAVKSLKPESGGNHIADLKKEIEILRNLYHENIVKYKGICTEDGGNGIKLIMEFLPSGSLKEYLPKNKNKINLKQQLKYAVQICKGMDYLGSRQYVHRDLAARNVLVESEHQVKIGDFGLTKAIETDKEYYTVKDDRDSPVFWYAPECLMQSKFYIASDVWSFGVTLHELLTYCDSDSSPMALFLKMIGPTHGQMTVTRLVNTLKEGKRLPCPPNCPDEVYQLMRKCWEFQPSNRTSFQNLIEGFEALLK
# experiment: Binding affinity to wild-type human partial length JAK1 JH2 pseudokinase domain (R537 to D855 residues) expressed in mammalian expression system at 10 uM by Kinomescan method relative to control
measurement kind: Kd (nM)
Express your answer in nM, writing the number without its unit.

State, in one line, measured Kd of c1ccc2sc(-c3cnn4cccnc34)nc2c1
550

====

# Test system: A2780
# experiment: Antimitotic activity against human A2780 cells by ATP lite luminescence assay
# Format: functional, cell-based
measurement kind: pEC50
Conceptually, pEC50 converts a concentration in mol/L into minus its log10.

Examples with answers:
INSERT INTO measurements (cpd_smiles, measurement) VALUES
  ('Fc1cccc(-c2cnn3cc(-c4ccc(OCCN5CCCCC5)cc4)cnc23)c1F', 5.85),
  ('c1ccc2sc(-c3cnn4cccnc34)nc2c1', 6.05),
  ('CN1CCN(CCOc2ccc(-c3cnc4c(-c5cccc(F)c5F)cnn4c3)cc2)CC1', 6.08),
  ('FC(F)(F)c1ccc(-c2cnn3cc(-c4ccc(OCCN5CCCCC5)cc4)cnc23)cc1', 5.64),
  ('CN1CCN(CCOc2ccc(-c3cnc4c(-c5ccc(F)cc5)cnn4c3)cc2)CC1', 5.96),
  ('Fc1ccc(-c2cnn3cc(-c4ccc(OCCN5CCCCC5)cc4)cnc23)cc1', 6.03);

State, in one line, measured pEC50 of CN1CCN(CCOc2ccc(-c3cnc4c(-c5cccc(F)c5)cnn4c3)cc2)CC1
6.02

State, in one line, measured pEC50 of CN1CCN(CCOc2ccc(-c3cnc4c(-c5ccccc5F)cnn4c3)cc2)CC1
6.28

State, in one line, measured pEC50 of CN1CCN(CCOc2ccc(-c3cnc4c(-c5ccc(C(F)(F)F)cc5)cnn4c3)cc2)CC1
5.54

State, in one line, measured pEC50 of Fc1cccc(-c2cnn3cc(-c4ccc(OCCN5CCCCC5)cc4)cnc23)c1
5.92

State, in one line, measured pEC50 of Fc1ccccc1-c1cnn2cc(-c3ccc(OCCN4CCCCC4)cc3)cnc12
5.57

Hello, the source for this data is ChEMBL document CHEMBL4602637, in case you need it.
